Cited source: PubChem BioAssay

Assignment: determine reported composite z-score for the given molecules.
test system: Plasmodium falciparum Sir2 (PF13_0152, Sir2A); experiment: pfSir2 binders on small-molecule microarrays, primary screen, biochemical, small-molecule microarray, 635 nm fluorescence (AID 1098); details: small-molecule microarray binding, fluorescence 635 nm; higher = more signal;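 also: score merges spot fluorescence intensity with its signal-to-noise ratio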
One number for each entry.

Examples with their reported composite z-score follow.
• O=C1[C@H]2[C@H]3[C@H](O)[C@H](O)CC(=NOC[C@@H](O)COCc4ccco4)[C@H]3CC[C@H]2C(=O)N1Cc1ccc2c(c1)OCO2 = 0.285
• CCc1cccc(NC(=O)O[C@H]2[C@H](OC(=O)Nc3ccc4c(c3)OCO4)[C@@H](OC(=O)Nc3ccc4c(c3)OCO4)[C@@H](OC)O[C@@H]2CO)c1 = 0.402
• COC(=O)c1c(CC[C@@H](CO)NC(=O)N[C@H](Cc2ccccc2)Cn2cc(-c3ccccc3N)nn2)oc(C(C)=O)c1C(=O)OC = 0.326
• CCOC(=O)[C@H](CC(C)C)NC(=O)CCC1CC(OC(=O)NCCc2ccc(F)cc2)CC2(CCCC(COC(=O)NCc3ccccc3)O2)O1 (stereo partly drawn) = 0.859

Items follow; give composite z-score for each.
1. C=CC[C@@H]1C=C[C@H](ON=Cc2ccc(C(=O)N3[C@H](c4ccc(C)cc4)[C@@H](C)CC[C@H]3C(=O)OC)cc2)[C@@H](CO)O1
2. CO[C@@H]1COC(=O)[C@H](C)NC(=O)[C@@H](C)COC(=O)CCC[C@H]1C

0.608
0.957

Items follow; give composite z-score for each.
1. COc1cccc([C@@H]2Oc3ccc(Br)cc3C(=O)[C@H]2O)c1
2. COCCOC(=O)N1C(=O)[C@@]2(c3cc(C#CC4(O)CCCCCC4)ccc31)[C@H](C(=O)N1CCN(c3ncccn3)CC1)[C@H]1C(=O)O[C@H](c3ccccc3)[C@H](c3ccccc3)N1[C@@H]2c1ccc(OCCO)cc1

1. 0.237
2. 1.4

----------
system: XIP peptide (Xip251-270); test: small-molecule binders of XIP peptide, primary screen, biochemical, small-molecule microarray, fluorescence 635/667 nm, 0.5 µg/mL protein (AID 1183); settings: small-molecule microarray binding, fluorescence 635 nm; higher = more signal
Assignment: determine reported composite z-score for the given compounds.

- C[C@H]1Cc2c(-c3ccccc3)nc3c(c2CO1)CN(CCOc1ccccc1)CC3: 0.771
- CC(CCN1CCCCc2nc(C)c(C)cc21)=NOC(C)CN1CCCCc2nc(C)c(C)cc21 (stereo not given): 0.805
- C[C@@H]1CC[C@H]2C(=O)O[C@H](COc3ccc(C(C)(C)C)cc3)CN2[C@H]1c1ccc(Br)cc1: 0.769
- COCCOC(=O)N1C(=O)[C@@]2(c3cc(C#CC4(O)CCCCCC4)ccc31)[C@H](c1ccc(OCCO)cc1)N1[C@H](c3ccccc3)[C@H](c3ccccc3)OC(=O)[C@H]1[C@@H]2C(=O)NC[C@H](O)c1ccccc1: 0.723

Items follow; give composite z-score for each.
1. CCOC(=O)NN=C1C[C@@H](O)[C@@H](O)[C@@H]2[C@@H]3C(=O)N(C[C@@H]4CCCO4)C(=O)[C@@H]3CC[C@@H]12
2. CCOC(=O)NN=C1C[C@@H](O)[C@@H](O)[C@@H]2[C@@H]3C(=O)N(C4CCCCC4)C(=O)[C@@H]3CC[C@@H]12
3. O=C1[C@H]2[C@H]3[C@H](O)[C@H](O)CC(=NO[C@@H]4O[C@H](CO)[C@@H](O)[C@H](O)[C@H]4O)[C@@H]3CC[C@H]2C(=O)N1c1ccc(F)cc1F
4. CCOC(=O)[C@H](Cc1ccccc1)NC(=O)CCC1CC(OC(=O)NCc2ccc3c(c2)OCO3)CC2(CCCC(COC(=O)NCc3ccccc3)O2)O1 (stereo not given in full)
5. CO[C@H]1O[C@H](CO)[C@@H](OC(=O)Nc2ccc(C#N)cc2)[C@H](OC(=O)c2cc3ccccc3[nH]2)[C@H]1OC(=O)c1cc2ccccc2[nH]1
6. O=C1O[C@@H](c2ccccc2)[C@@H](c2ccccc2)N2[C@@H](c3ccccc3OCCO)[C@]3(C(=O)Nc4ccc(C#CCCO)cc43)[C@@H](C(=O)O)[C@H]12
7. O=C1CCCC2OC12C(O)CCc1ccccc1 (stereo not given)
8. CC(C)CON=C1C[C@@H](O)[C@@H](O)[C@@H]2[C@@H]3C(=O)N(Cc4ccccc4)C(=O)[C@@H]3CC[C@@H]12

-0.0422
0.101
0.225
0.389
0.875
0.842
-0.213
-0.229
